Molecular target: T1, soluble human GCGR extracellular domain (human, UniProt P47871 26-136, limits assumed)
T1 construct: also called soluble GCGR
T1 sequence (P47871 26-136 limits assumed): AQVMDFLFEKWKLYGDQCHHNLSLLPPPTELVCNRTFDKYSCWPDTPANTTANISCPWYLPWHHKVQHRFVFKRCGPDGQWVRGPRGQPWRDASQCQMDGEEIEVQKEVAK
Assay: Biacore SPR, captured antibody, soluble human GCGR extracellular domain as analyte

Binder: anti-GCGR antibody 3H5 (antibody, V domains shown, mouse hybridoma monoclonal antibody; also called 3H-15) VH: QVQLQQSGAELVKPGASVRLSCKASGNTFTNYWMHWVKQRPGQGLEWIGMIHPNSGSTHYNEKFKNKATLTVDKSSNTAYMQLSGLTSEDSAVYYCGATADYVMDYWGQGTSVTVSS VL: DIVLTQTPLSLPVNIGDQASISCKSTKSLLNSDGFTYLDWYLQKPGQSPQLLINLVSNRFSGVPDRFSGSGSGTEFILKISRVEAEDLGVYYCFQSNFLPLTFGAGTKLELK
Kd (nM): 2.2

Binder: anti-GCGR antibody 14E9 (antibody, V domains shown, mouse hybridoma monoclonal antibody; also called 13E9) VH: QVQLQQSGAELVRPGTSVKMSCKAAGYTFTNYWIGWVKQRPGHGLEWIGDISPGNYYTNYNAKFKDKVSLTADTSSSTAYMQLSSLTSEDSAIYYCARYDEFAYWGQGTLVTVSA VL: DVLMTQTPLSLSVSLGDQASISCRSSQSIVHSDGNTYLEWYLQKPGQSPKLLIYKVSNRFSGVPDRFSGSGSGTDFTLKISRVEAEDLGVYYCFQGSHVPWTFGGGTKLEIK
Kd (nM): 0.8

Binder: anti-GCGR antibody 6B5 (antibody, V domains shown, mouse hybridoma monoclonal antibody; also called 61B5) VH: QVQLQQSGTELVRPGTSVKISCKASGFTFTNHWLGWVKQRPGHGLEWIGDIYPGGYYINYNEKFKGKATLTADTSSSTAYMQLSSLTSEDSAVYFCARHTNYGSDYWGQGTTLTVSS VL: DVLMTQIPLSLPVSLGDQASISCRSSQSIVDSYGNTFLEWYLQKPGQSPKLLIYKVSNRLSGVPDRFSGTGAGTDFTLKISRVEAEDLGIYYCFQGSHVPWTFGGGTKLEIK
Kd (nM): 0.22

Binder: anti-GCGR antibody 5B11 (antibody, V domains shown, mouse hybridoma monoclonal antibody) VH: QVQLQQSGAELVKPGASVKLSCKASGNTFTSHWMHWVKQRPGQGLEWIGMSHPNSGSSNYSGKFKSKATLTVDRSSSTAYMQLNSLTSEDSAVYYCARTDYDYDGDYWGQGTTLTVSS VL: DVVLTQTPLSLPVNIGDQASISCKSSKSLLNSDGLTYLDWYLQKPGQSPQLLIYLVSNRFSGVPDRFSGSGSGTDFTLKISRVEADDLGVYYCFQSNFLPLTFGAGTKLELK
Kd (nM): 1.2

Binder: anti-GCGR antibody 1C3 (antibody, V domains shown, mouse hybridoma monoclonal antibody) VH: EVQLQQSGPELVKPGASVKMSCKASGYTFTSSVMHWVKQKPGQALEWIGYINPYNDGTKYNENFKGKATLTSDRSSTTAYMELSSLTSEDSAVYYCVTGAGYDRGPMAMDYWGQGTSVTVSS VL: NIVLTQSPASLAVSLGQRATISCRASESVDSYGDSFVHWYQQKPGQPPKLLIYFASNLESGVPARFSGSGSRTDFTLTIDPVEADDTATYYCQQNNEVPFTFGSGTKLELK
Kd (nM): 1.4

Binder: anti-GCGR antibody 1C1 (antibody, V domains shown, mouse hybridoma monoclonal antibody) VH: EVQLQQSGPELVKPGATVKMSCKASGYTFTRNVIHWVKQKPGQGLEWIGYINPYNDGAKYNAKFKGKATVTSDKSSSTAYMELSSLTSEDSAVYYCARWGNYEDFAMDYWGQGTSVTVSS VL: NIVLTQSPPSLAVSLGQRATISCRASESVDIYGNSYMHWYQQKPGQPPKLLIYLASNLESGVPARFSGSGSRTEFSLTIDPVEAGDAATYYCQQNNEDPFTFGGGTKLEIK
Kd (nM): 1.9

Binder: anti-GCGR antibody 1H2 (antibody, V domains shown, mouse hybridoma monoclonal antibody) VH: QVQLQQPGAELVKPGASVKMSCKVSGYTFTSYWITWVKQRPGQGLEWIGDIHPGGGDTNYNKKFKSKATLTVDTSSSTAYMQLSSLTSEDSAVYHCTSDDNYVGFTYWGQGTLVTVSA VL: DVLMTQTPLSLPVSLGDQASISCRSSQTIIHSDGNTYLEWYLQKPGQSPILLIYKVSNRFSGVPDRFSGSGSGTDFTLKISRVEAEDLGVYYCFQGSHVPWTFGGGTKLEIK
Kd (nM): 3.7

Binder: anti-GCGR antibody 4F8 (antibody, V domains shown, mouse hybridoma monoclonal antibody) VH: QVQLQQSGAELVRPGTSVTMSCKAAGYTFSNYWIGWVKQRPGHGLEWIGDIYPGGFYDNYNDKFKGKATLTTDTSSSTAYMQLSSLTSEDSAIYYCTRSGGLPGAGFTYWGQGTLVTVSA VL: DVLMTQTPLSLPVSLGDQASISCRSSQHIVYSDGNTYLEWYLQKPGQSPKLLIYKVSNRFSGVPDRFSGSGSGTDFTLEISRVEAEDLGVYYCFQGSHVPWTFGGGTKLEIK
Kd (nM): 0.5

Binder: anti-GCGR antibody 14F4 (antibody, V domains shown, mouse hybridoma monoclonal antibody; also called 141F4) VH: QVQLQQSGAELVRPGTSVNMSCKATGYTFTNYWIGWVKQRPGHGLEWIGDIFPGGFYSNYNEKFKGKATLTTDTSSSTGYMQLSSLTSEDSAIYYCARIWDRGFDYWGQGTTLTVSS VL: DVLMTQSPLSLPVSLGDQASISCRSSQSIVDSYGNTYLEWYLQKPGQSPKLLIYKVSNRFSGVPDRFSGSGSGTDFTLKISRVEAEDRGLYYCFQGSHVPYTFGGGTKLEIK
Kd (nM): 0.57

Binder: anti-GCGR antibody 13G9 (antibody, V domains shown, mouse hybridoma monoclonal antibody; also called 13G19) VH: QVQLQQSGAELVRPGTSVKISCKASGYTFTNYWLGWVKQRPGHGLEWIGDIYPGGDYNNYNGKFKGKATLTADTSSSTAYIQLSSLTSEDSAVYFCVRSDDGYSWGQGTTLTVSS VL: DVLMTQTPLSLPVSLGDQASISCRSSQSIVDSYGNTYLEWYQQKPGQSPTLLIYKVSNRFAGVPDRFSGSGSGTDFTLKISRVEAEDLGVYYCFQGSHIPWTFGGGTKVEIK
Kd (nM): 0.25
